Would you kindly list Remaining Percentage (%) after 60 min, Mouse, With cofactors for each of these molecules?
experiment: Liver microsomes stability, mouse
condition_context: mouse liver microsomes, with cofactors, 60 min
Write down the value, and be sure its unit follows.

Some molecules with recorded Remaining Percentage (%) after 60 min, Mouse, With cofactors:
O=C(O)Cc1ccccc1Nc1c(Cl)cccc1Cl [Diclofenac, reference compound]; 35.94%
[2H]C([2H])(c1c[nH]c2cccc(OC(=O)CCCC(=O)Oc3cccc4[nH]cc(C([2H])([2H])[C@H]5CCCN5C([2H])([2H])[2H])c34)c12)[C@H]1CCCN1C([2H])([2H])[2H] [Compound I-22]; 0%
CN1CCC[C@@H]1Cc1c[nH]c2cccc(OC(=O)CCCC(=O)Oc3cccc4[nH]cc(C[C@H]5CCCN5C)c34)c12 [Compound I-13]; 0%

Request: Please give the measured Remaining Percentage (%) after 60 min, Mouse, With cofactors for this molecule: CN(C)CCc1c[nH]c2cccc(O)c12 [Psilocin, 4-hydroxy-N,N-dimethyltryptamine, reference compound]
Response: 96.89%

====

experiment: Plasma stability, dog
Type: in vitro ADME
condition_context: 37° C.
Can you tell me half-life for the items I'm about to list?
Answers are plain numbers, in min.

[2H]C([2H])(c1c[nH]c2cccc(OC(=O)CCCC(=O)Oc3cccc4[nH]cc(C([2H])([2H])[C@H]5CCCN5C([2H])([2H])[2H])c34)c12)[C@H]1CCCN1C([2H])([2H])[2H]; 24.9

Please turn your attention to the following entry.
Request: Please look up its half-life: "CN1CCC[C@@H]1Cc1c[nH]c2cccc(OC(=O)CCCC(=O)Oc3cccc4[nH]cc(C[C@H]5CCCN5C)c34)c12"
Response: 49.2

====

experiment: Liver microsomes stability, rat
condition_context: rat liver microsomes, with cofactors, 60 min
metric_name: Remaining Percentage (%) after 60 min, Rat, With cofactors
Be sure to follow the number with its unit.

The examples below pair each entry with its known result.
CN1CCC[C@@H]1Cc1c[nH]c2cccc(OC(=O)CCCC(=O)Oc3cccc4[nH]cc(C[C@H]5CCCN5C)c34)c12 [Compound I-13]; 0%
CN(C)CCc1c[nH]c2cccc(O)c12 [Psilocin, 4-hydroxy-N,N-dimethyltryptamine, reference compound]; 62.68%
O=C(O)Cc1ccccc1Nc1c(Cl)cccc1Cl [Diclofenac, reference compound]; 7.11%

Request: Find the recorded Remaining Percentage (%) after 60 min, Rat, With cofactors belonging to [2H]C([2H])(c1c[nH]c2cccc(OC(=O)CCCC(=O)Oc3cccc4[nH]cc(C([2H])([2H])[C@H]5CCCN5C([2H])([2H])[2H])c34)c12)[C@H]1CCCN1C([2H])([2H])[2H] [Compound I-22] and report it.
Response: 0%

====

experiment: Liver microsomes stability, mouse
condition_context: male, mouse, mouse liver microsomes
I'd be grateful if you could share measured half-life at 2 μM for these entries.

CN1CCC[C@@H]1Cc1c[nH]c2cccc(OC(=O)CCCC(=O)Oc3cccc4[nH]cc(C[C@H]5CCCN5C)c34)c12; < 4.51 min

Request: Quick one: half-life at 2 μM of "[2H]C([2H])(c1c[nH]c2cccc(OC(=O)CCCC(=O)Oc3cccc4[nH]cc(C([2H])([2H])[C@H]5CCCN5C([2H])([2H])[2H])c34)c12)[C@H]1CCCN1C([2H])([2H])[2H]" ?
Response: < 4.51 min

====

assayed_system: human 5-HT2A receptor (Homo sapiens, UniProt P28223)
Sequence (P28223 whole entry): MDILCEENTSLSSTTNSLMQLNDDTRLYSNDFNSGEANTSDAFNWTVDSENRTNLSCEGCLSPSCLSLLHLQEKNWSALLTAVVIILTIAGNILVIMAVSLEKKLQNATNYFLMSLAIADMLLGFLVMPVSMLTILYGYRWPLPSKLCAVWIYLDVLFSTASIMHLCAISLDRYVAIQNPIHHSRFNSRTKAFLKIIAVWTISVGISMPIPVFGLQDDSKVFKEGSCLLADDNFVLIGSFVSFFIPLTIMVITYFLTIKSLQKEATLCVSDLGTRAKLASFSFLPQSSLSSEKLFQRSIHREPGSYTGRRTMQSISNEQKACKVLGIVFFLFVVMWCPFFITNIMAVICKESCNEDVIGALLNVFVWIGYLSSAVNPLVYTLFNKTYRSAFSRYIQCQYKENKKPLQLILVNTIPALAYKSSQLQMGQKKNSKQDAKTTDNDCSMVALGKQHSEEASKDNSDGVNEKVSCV
experiment: Human 5-HT2A functional FLIPR assay (agonist mode)
Format: cell-based
Set-up: expressed in transfected cells
condition_context: FLIPR, h5-HT2A; curve fitting with activation (%) @ 10 mM with RFU (footnote)
Please use criterion met whenever RFU@10 μM is not below 3000 RFU, and criterion not met whenever it is.

Example entries and their recorded answers appear below.
[2H]C([2H])(c1c[nH]c2cccc(O)c12)[C@H]1CCCN1C([2H])([2H])[2H]; criterion met
CN1CCC[C@@H]1Cc1c[nH]c2cccc(OC(=O)CCCC(=O)Oc3cccc4[nH]cc(C[C@H]5CCCN5C)c34)c12; criterion met
CN(C)CCc1c[nH]c2cccc(O)c12 [Psilocin, 4-hydroxy-N,N-dimethyltryptamine, reference compound]; criterion not met

Request: Is reported RFU@10 μM greater than or equal to 3000 RFU here: "[2H]C([2H])(c1c[nH]c2cccc(OC(=O)CCCC(=O)Oc3cccc4[nH]cc(C([2H])([2H])[C@H]5CCCN5C([2H])([2H])[2H])c34)c12)[C@H]1CCCN1C([2H])([2H])[2H]"
Response: criterion met

====

assayed_system: human 5-HT2A receptor (Homo sapiens)
experiment: Human 5-HT2A functional FLIPR assay (agonist mode)
Format: cell-based
Set-up: expressed in transfected cells
condition_context: FLIPR agonist mode, HTR2A&Gα15-HEK293 cells; ND: not detected; read-out: h5-HT2A, EC50
metric_name: pEC50
Numbers only, as −log10 of the molar value.

CN1CCC[C@@H]1Cc1c[nH]c2cccc(OC(=O)CCCC(=O)Oc3cccc4[nH]cc(C[C@H]5CCCN5C)c34)c12; 7.49

From here, focus on the item given below.
Request: Dear colleague, I am looking for the recorded pEC50 of the following compound: "[2H]C([2H])(c1c[nH]c2cccc(OC(=O)CCCC(=O)Oc3cccc4[nH]cc(C([2H])([2H])[C@H]5CCCN5C([2H])([2H])[2H])c34)c12)[C@H]1CCCN1C([2H])([2H])[2H]"
Response: 7.88

====

assayed_system: human 5-HT1A receptor (Homo sapiens)
Sequence (P08908 whole entry): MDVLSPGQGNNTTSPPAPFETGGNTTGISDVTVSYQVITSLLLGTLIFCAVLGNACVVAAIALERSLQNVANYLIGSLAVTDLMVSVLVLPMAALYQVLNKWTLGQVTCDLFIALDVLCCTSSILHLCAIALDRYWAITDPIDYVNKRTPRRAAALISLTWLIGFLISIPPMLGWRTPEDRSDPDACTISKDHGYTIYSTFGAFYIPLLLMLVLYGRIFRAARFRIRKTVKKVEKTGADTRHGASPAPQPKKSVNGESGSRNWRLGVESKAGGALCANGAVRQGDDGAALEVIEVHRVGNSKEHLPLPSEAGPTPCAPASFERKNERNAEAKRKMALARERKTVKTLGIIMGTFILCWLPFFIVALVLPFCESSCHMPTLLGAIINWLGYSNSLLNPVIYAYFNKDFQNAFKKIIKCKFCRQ
experiment: Human 5-HT1A radioligand binding assay ([3H]-8-Hydroxy-DPAT)
condition_context: radioligand binding, [3H]-8-Hydroxy-DPAT; read-out: h5-HT1A, IC50
metric_name: IC50

Request: Entry CN(C)CCc1c[nH]c2cccc(O)c12 [Psilocin, 4-hydroxy-N,N-dimethyltryptamine, reference compound] has what IC50?
Response: 196 nM

====

experiment: Intestinal mucosal permeation using Caco-2 cell monolayers
condition_context: human, Caco-2, pH 7.4
Kind request: treat 3 as inclusive, so efflux ratio at 2 h, 5 μM at 3 or higher is satisfied, anything lower is not satisfied.

Worked set:
CN(C)CCc1c[nH]c2cccc(OP(=O)(O)O)c12; not satisfied
[2H]C([2H])(c1c[nH]c2cccc(OC(=O)CCCC(=O)Oc3cccc4[nH]cc(C([2H])([2H])[C@H]5CCCN5C([2H])([2H])[2H])c34)c12)[C@H]1CCCN1C([2H])([2H])[2H]; satisfied

Let's switch to this compound now.
Request: Hi team, for "CN1CCC[C@@H]1Cc1c[nH]c2cccc(OC(=O)CCCC(=O)Oc3cccc4[nH]cc(C[C@H]5CCCN5C)c34)c12" , is the recorded efflux ratio at 2 h, 5 μM at or above 3?
Response: satisfied

====

assayed_system: UniProtKB P28223
experiment: Human 5-HT2A functional FLIPR assay (agonist mode)
Assay type: cell-based
Parameters: expressed in transfected cells
metric_name: pEC50
One number for each entry, as −log10 of the molar value.

CN1CCC[C@@H]1Cc1c[nH]c2cccc(O)c12 [Compound 10]; 7.33

// next item, pEC50 requested
Request: # pEC50 lookup, item [2H]C([2H])(c1c[nH]c2cccc(O)c12)[C@H]1CCCN1C([2H])([2H])[2H] [Compound 13]
Response: 7.36

====

experiment: Liver microsomes stability, human
condition_context: human, pooled human liver microsomes
metric_name: microsomal CLint at 2 μM (µL/min/mg)
Numbers only, in µL/min/mg.

Request: // returns reported microsomal CLint at 2 μM for input "[2H]C([2H])(c1c[nH]c2cccc(OC(=O)CCCC(=O)Oc3cccc4[nH]cc(C([2H])([2H])[C@H]5CCCN5C([2H])([2H])[2H])c34)c12)[C@H]1CCCN1C([2H])([2H])[2H]"
Response: 297

====

experiment: Intestinal mucosal permeation using Caco-2 cell monolayers
condition_context: human, Caco-2, pH 7.4
Decision: Papp B→A at 2 h, 5 µM compared against 20 ×10⁻⁶ cm/s; not below it gives 1, below it gives -1.

These solved cases illustrate the format of a correct answer.
[2H]C([2H])(c1c[nH]c2cccc(OC(=O)CCCC(=O)Oc3cccc4[nH]cc(C([2H])([2H])[C@H]5CCCN5C([2H])([2H])[2H])c34)c12)[C@H]1CCCN1C([2H])([2H])[2H] [Compound I-22]; -1
CN1CCC[C@@H]1Cc1c[nH]c2cccc(OC(=O)CCCC(=O)Oc3cccc4[nH]cc(C[C@H]5CCCN5C)c34)c12 [Compound I-13]; -1
CC(C)NCC(O)COc1cccc2ccccc12 (centres unmarked) [Propranolol]; 1
CN(C)CCc1c[nH]c2cccc(O)c12 [Psilocin, 4-hydroxy-N,N-dimethyltryptamine, reference compound]; -1
CN(C)CCc1c[nH]c2cccc(OP(=O)(O)O)c12 [Psilocybin, 4-phosphoryloxy-N,N-dimethyltrypatmine]; -1
CN1CCC[C@@H]1Cc1c[nH]c2cccc(O)c12 [Compound 10]; -1
C[C@H]1O[C@@H](O[C@H]2[C@@H](O)C[C@H](O[C@H]3[C@@H](O)C[C@H](O[C@H]4CC[C@@]5(C)[C@H](CC[C@@H]6[C@@H]5C[C@@H](O)[C@]5(C)[C@@H](C7=CC(=O)OC7)CC[C@]65O)C4)O[C@@H]3C)O[C@@H]2C)C[C@H](O)[C@@H]1O [Digoxin]; -1

Shifting focus to the compound that follows.
Request: Form field: Papp B→A at 2 h, 5 µM at least 20 ×10⁻⁶ cm/s? Entry: COc1cc2nc(N3CCN(C(=O)c4ccco4)CC3)nc(N)c2cc1OC [Prazosin]
Response: 1
